biological target: hGHQ141N, P01241
Sequence (P01241 27-217 Q167N): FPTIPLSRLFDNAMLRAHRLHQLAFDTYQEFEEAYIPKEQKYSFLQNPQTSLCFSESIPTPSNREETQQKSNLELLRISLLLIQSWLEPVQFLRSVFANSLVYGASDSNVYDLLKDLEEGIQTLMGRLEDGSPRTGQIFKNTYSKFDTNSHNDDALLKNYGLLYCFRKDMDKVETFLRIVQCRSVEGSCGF
quantity: Activity towards hGHQ141N (RFU/sec/µg), dansyl-cadaverine incorporation
Report as a plain number; the unit RFU/sec/µg is understood.

Lookup result for Met-mTGase from S. mobaraensis (protein) MDSDDRVTPPAEPLDRMPDPYRPSYGRAETVVNNYIRKWQQVYSHRDGRKQQMTEEQREWLSYGCVGVTWVNSGQYPTNRLAFASFDEDRFKNELKNGRPRSGETRAEFEGRVAKESFDEEKGFQRAREVASVMNRALENAHDESAYLDNLKKELANGNDALRNEDARSPFYSALRNTPSFKERNGGNHDPSRMKAVIYSKHFWSGQDRSSSADKRKYGDPDAFRPAPGTGLVDMSRDRNIPRSPTSPGEGFVNFDYGWFGAQTEADADKTVWTHGNHYHAPNGSLGAMHVYESKFRNWSEGYSDFDRGAYVITFIPKSWNTAPDKVKQGWP ; measured Activity towards hGHQ141N (RFU/sec/µg), dansyl-cadaverine incorporation: 1.24
